Tested on: waterhemp (common waterhemp, Amaranthus rudis)
ASSAY_PROCEDURE: Test C preemergence
Format: in vivo
PARTICULARS: 16 g ai/ha, scale 0 to 100, 0 is no effect, 100 is complete control
MEASUREMENT_NAME: Plant response rating, Waterhemp

                           structure_smiles  measured_value
0  O=c1cccc(Oc2ncc(Cl)cn2)n1-c1ccc(C(F)(F)F)cc1              70
1  O=c1cccc(Oc2ncc(Cl)cn2)n1-c1ccc(C(F)(F)F)cn1              85
2    O=c1cccc(Oc2ncc(Cl)cn2)n1-c1ccc(Cl)cc1              20
3    O=c1cccc(Oc2ncc(Cl)cn2)n1-c1ncc(Cl)cn1              75

----------
Each entry below lists one item and its recorded Plant response rating, Lambsquarters value.
Test system: lambsquarters (Chenopodium album)
ASSAY_PROCEDURE: Test C preemergence
Assay type: in vivo
PARTICULARS: 62 g ai/ha, scale 0 to 100, 0 is no effect, 100 is complete control
MEASUREMENT_NAME: Plant response rating, Lambsquarters

>>> print(df.to_string())
                           structure_smiles                 measurement_target  measured_value
0  O=c1cccc(Oc2ncc(Cl)cn2)n1-c1ccc(C(F)(F)F)cc1  lambsquarters (Chenopodium album)              35
1  O=c1cccc(Oc2ncc(Cl)cn2)n1-c1ccc(C(F)(F)F)cn1  lambsquarters (Chenopodium album)              75
2    O=c1cccc(Oc2ncc(Cl)cn2)n1-c1ncc(Cl)cn1  lambsquarters (Chenopodium album)              65
3    O=c1cccc(Oc2ncc(Cl)cn2)n1-c1ccc(Cl)cc1  lambsquarters (Chenopodium album)              45

----------
This listing pairs compounds with measured Plant response rating, Galium.
System: galium (catchweed bedstraw, Galium aparine)
ASSAY_PROCEDURE: Test C postemergence
Format: in vivo
PARTICULARS: 125 g ai/ha, scale 0 to 100, 0 is no effect, 100 is complete control
MEASUREMENT_NAME: Plant response rating, Galium

>>> print(df.to_string())
                                   compound  measured_value
0  O=c1cccc(Oc2ncc(Cl)cn2)n1-c1ncc(Cl)cn1 [Compound 6]              80
1  O=c1cccc(Oc2ncc(Cl)cn2)n1-c1ccc(Cl)cc1 [Compound 1]              85
2  O=c1cccc(Oc2ncc(Cl)cn2)n1-c1ccc(C(F)(F)F)cn1 [Compound 7]              75
3  O=c1cccc(Oc2ncc(Cl)cn2)n1-c1ccc(C(F)(F)F)cc1 [Compound 10]              80

----------
System: barnyardgrass (Echinochloa crus-galli)
ASSAY_PROCEDURE: Test C preemergence
Assay type: in vivo
PARTICULARS: 62 g ai/ha, scale 0 to 100, 0 is no effect, 100 is complete control
MEASUREMENT_NAME: Plant response rating, Barnyardgrass

>>> print(df.to_string())
                                   molecule                      measurement_target  measured_value
0  O=c1cccc(Oc2ncc(Cl)cn2)n1-c1ncc(Cl)cn1 [Compound 6]  barnyardgrass (Echinochloa crus-galli)              10
1  O=c1cccc(Oc2ncc(Cl)cn2)n1-c1ccc(C(F)(F)F)cn1 [Compound 7]  barnyardgrass (Echinochloa crus-galli)              35
2  O=c1cccc(Oc2ncc(Cl)cn2)n1-c1ccc(Cl)cc1 [Compound 1]  barnyardgrass (Echinochloa crus-galli)              40
3  O=c1cccc(Oc2ncc(Cl)cn2)n1-c1ccc(C(F)(F)F)cc1 [Compound 10]  barnyardgrass (Echinochloa crus-galli)              75
